experiment: photoluminescence quantum yield (fraction); solvent given as SMILES
assay-context: in CCO
Known photoluminescence quantum yield of a selection of compounds
assay-endpoint: photoluminescence quantum yield

>>> numeric_result("CC1(C)C(/C=C/c2cc3ccc(O)cc3oc2=O)=[N+](CCCS(=O)(=O)[O-])c2ccc(S(=O)(=O)O)cc21")
0.031
>>> numeric_result("COC(=O)c1ccc2ccc3cccc4ccc1c2c34")
0.81
>>> numeric_result("CN(C)c1ccc2c(-c3cc(N)ccc3C(=O)[O-])c3ccc(=[N+](C)C)cc-3oc2c1")
0.016
>>> numeric_result("COc1ccc2cc3c(C)cc(=O)oc3cc2c1")
0.13
>>> numeric_result("O=C([O-])c1c(Cl)c(Cl)c(Cl)c(Cl)c1-c1c2cc(I)c(=O)c(I)c-2oc2c(I)c([O-])c(I)cc12")
0.11
>>> numeric_result("CN(C)c1ccc(/C=C/c2nc3ccc(N(C)C)cc3oc2=O)cc1")
0.016
>>> numeric_result("CCOC(=O)c1cc(C(=O)OCC)c2cc(N)ccc2n1")
0.4
>>> numeric_result("c1ccc2nc3c(nc2c1)[nH]c1ccccc13")
0.01
>>> numeric_result("CCC1=C(C)C2=Cc3cccn3[B-](F)(F)[N+]2=C1C")
0.69
>>> numeric_result("CN1c2cc3nc4cc(Br)c(Br)cc4nc3cc2N(C)C1(C)C")
0.11
>>> numeric_result("N#CC1=C(c2ccc(-c3cccs3)s2)CCC1")
0.04
>>> numeric_result("CCN(CC)c1ccc2c(-c3ccc(S(=O)(=O)O)cc3S(=O)(=O)[O-])c3ccc(=[N+](CC)CC)cc-3oc2c1")
0.66
>>> numeric_result("CN1/C(=C/C=C(/C=C/C2=[N+](C)c3ccccc3C2(C)C)c2cccc(C(F)(F)F)c2)C(C)(C)c2ccccc21")
0.11
>>> numeric_result("CN(C)CCNCc1c2ccccc2cc2ccccc12")
0.0179
>>> numeric_result("O=C1c2ccc3c4ccc5c6c(ccc(c7ccc(c2c37)C(=O)N1c1ccncc1)c64)C(=O)N(c1ccncc1)C5=O")
0.201
>>> numeric_result("O=c1oc2ccccc2c(O)c1C(CC(O)c1ccc(-c2ccc(Br)cc2)cc1)c1ccccc1 (configuration not stated)")
0.058
>>> numeric_result("Cc1ccccc1-c1c2ccc(=[N+]3CCN(C(=O)OC(C)(C)C)CC3)cc-2oc2cc(N3CCN(C(=O)OC(C)(C)C)CC3)ccc12")
0.19
